This collection of values is drawn from paper PMC6155683.

Test: PK study of the 12 alkaloids in rat plasma after oral administration of ZJ and FZJ extract (LC–MS/MS)
Assay type: in vivo
Settings: 3.38 g/kg; rat plasma, oral ZJ extract, mean ± SD, n = 6; read-out: t1/2
QUANTITY: half-life (h)

// solved cases for half-life follow
molecule="COc1ccc2cc3[n+](cc2c1OC)CCc1cc2c(cc1-3)OCO2 [berberine]" quantity=half-life measurement_unit=h endpoint_result=6.3
molecule="COc1cc2c(cc1OC)-c1cc3ccc4c(c3c(=O)n1CC2)OCO4 [8-oxoepiberberine]" quantity=half-life measurement_unit=h endpoint_result=9.88

A = COc1cc2c(cc1OC)C(=O)NCC2 [corydaldine]
B = COc1cc2c(cc1OC)-c1cc3ccc4c(c3c[n+]1CC2)OCO4 [epiberberine]
[in] Input pair: A , B . Output: entry with lower half-life. Pick one and reply with its label.
[out] B
